test-target: Human recombinant TDP1 (Homo sapiens, UniProt Q9NUW8)
Construct: made in house
Sequence (Q9NUW8 whole entry): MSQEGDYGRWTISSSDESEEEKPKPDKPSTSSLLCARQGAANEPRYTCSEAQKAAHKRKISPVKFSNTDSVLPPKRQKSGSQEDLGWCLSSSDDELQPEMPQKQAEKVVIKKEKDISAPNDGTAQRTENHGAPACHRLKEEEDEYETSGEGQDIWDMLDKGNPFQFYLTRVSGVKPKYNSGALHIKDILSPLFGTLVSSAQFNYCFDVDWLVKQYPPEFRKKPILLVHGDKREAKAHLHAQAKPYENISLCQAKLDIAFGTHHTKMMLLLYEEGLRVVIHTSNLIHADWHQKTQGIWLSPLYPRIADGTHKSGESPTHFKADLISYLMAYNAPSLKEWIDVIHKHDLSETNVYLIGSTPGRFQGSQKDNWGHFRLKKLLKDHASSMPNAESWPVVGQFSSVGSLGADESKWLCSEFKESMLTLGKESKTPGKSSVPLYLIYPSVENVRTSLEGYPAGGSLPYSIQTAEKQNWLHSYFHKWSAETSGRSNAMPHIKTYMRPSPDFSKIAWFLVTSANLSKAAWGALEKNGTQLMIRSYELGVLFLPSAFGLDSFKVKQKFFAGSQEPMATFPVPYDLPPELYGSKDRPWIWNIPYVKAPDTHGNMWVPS
assay-overview: Real-time oligonucleotide biosensor assay of TDP1 activity
Format: biochemical
experimental-context: 1.5 nM TDP1, 50 nM biosensor, 26 °C, at least three experiments; read-out: TDP1 inhibitory activity IC50
From the text: The inhibiting activity of the compounds against TDP1 was investigated using a real-time oligonucleotide biosensor assay. The biosensor (5′-[FAM] AAC GTC AGGGTC TTC C [BHQ]-3′) was synthesized in the Laboratory of Nucleic Acid Chemistry at the Institute of Chemical Biology and Fundamental Medicine (Novosibirsk, Russia) and was used for TDP1 enzyme activity real-time fluorescence detection. […]
This section presents compounds with their documented IC50 values.
value-type: IC50 (nM)

> print(dat)
                                    compound  value.type  qual  numeric.result
 1  O=C1S/C(=C\c2cccs2)C(=O)N1Cc1ccccc1 [Compound 19c]        IC50     >          100000
 2  Cc1ccc(/C=C2\SC(=O)N(CCC3=CC[C@H]4C[C@@H]3C4(C)C)C2=O)s1 [Compound 21e]        IC50     =            2300
 3  CC1(C)[C@H]2CC=C(CCN3C(=O)S/C(=C\c4cc(Br)cs4)C3=O)[C@@H]1C2 [Compound 21d]        IC50     =             550
 4  O=C1S/C(=C\c2cc(Br)cs2)C(=O)N1Cc1ccccc1 [Compound 19d]        IC50     >          100000
 5  O=C1S/C(=C\c2ccc(Br)s2)C(=O)N1Cc1ccccc1 [Compound 19b]        IC50     =            1900
 6  CC(C)=CCC/C(C)=C/CN1C(=O)S/C(=C\c2cc(Br)cs2)C1=O [Compound 20d]        IC50     =             650
 7  CC1(C)[C@H]2CC=C(CCN3C(=O)S/C(=C\c4ccc(Br)cc4)C3=O)[C@@H]1C2 [Compound 21f]        IC50     >          100000
 8  O=C1S/C(=C\c2ccc(Br)cc2)C(=O)N1Cc1ccccc1 [Compound 19f]        IC50     =            1600
 9  CC1=CCC(CC=C2SC(=O)N(CCC3=CCC4CC3C4(C)C)C2=O)C1(C)C (stereo not drawn) [Compound 21g]        IC50     =            2400
10  Cc1ccc(/C=C2\SC(=O)N(Cc3ccccc3)C2=O)s1 [Compound 19e]        IC50     >          100000
11  CC(C)=CCC/C(C)=C/CN1C(=O)S/C(=C\c2ccco2)C1=O [Compound 20a]        IC50     =            3400
12  CC1(C)[C@H]2CC=C(CCN3C(=O)S/C(=C\c4ccc(Br)s4)C3=O)[C@@H]1C2 [Compound 21b]        IC50     =            2500
13  O=C1NC(=O)/C(=C/c2ccco2)S1 [Compound 18a]        IC50     >          100000
14  CC1=CC[C@@H](C/C=C2\SC(=O)N(Cc3ccccc3)C2=O)C1(C)C [Compound 19g]        IC50     =            2400
15  CC(C)=CCC/C(C)=C/CN1C(=O)S/C(=C\C[C@@H]2CC=C(C)C2(C)C)C1=O [Compound 20g]        IC50     =            4100
16  CC(C)=CCC/C(C)=C/CN1C(=O)S/C(=C\c2ccc(C)s2)C1=O [Compound 20e]        IC50     =            2900
17  O=C1NC(=O)/C(=C/c2cc(Br)cs2)S1 [Compound 18d]        IC50     >          100000
18  Cc1ccc(/C=C2\SC(=O)NC2=O)s1 [Compound 18e]        IC50     >          100000
